test: Phase 1 randomized open-label crossover food-effect pharmacokinetic study, plasma vonoprazan by LC-MS/MS; type: in vivo, healthy Caucasian male and female subjects (human); conditions: both sexes, human, plasma, po, 20 mg, single 20-mg oral dose, fed, N = 24; read-out: AUC0‐∞, least-squares mean
QUANTITY_MEASURED: AUC

Task item: # lookup: AUC of `CNCc1cc(-c2ccccc2F)n(S(=O)(=O)c2cccnc2)c1.O=C(O)/C=C/C(=O)O`
Reply: 196 ng·h/mL

---

test: Phase 1 randomized open-label crossover food-effect pharmacokinetic study, plasma vonoprazan by LC-MS/MS; format: in vivo, healthy Caucasian male and female subjects (human); details: both sexes, human, plasma; single 20-mg oral dose, fed, n = 24; read-out: t1/2 (terminal elimination half-life), mean (SD) (converted)
QUANTITY_MEASURED: half-life (h)
Numbers only, in h.

Task item: # lookup: half-life of `CNCc1cc(-c2ccccc2F)n(S(=O)(=O)c2cccnc2)c1.O=C(O)/C=C/C(=O)O`
Reply: 6.9

---

assay: Phase 1 randomized open-label crossover food-effect pharmacokinetic study, plasma vonoprazan by LC-MS/MS; type: in vivo, healthy Caucasian male and female subjects (human); settings: both sexes, human, plasma, po, 20 mg, single 20-mg oral dose, fed, n = 24, plasma; read-out: AUC0‐∞, mean (SD)
QUANTITY_MEASURED: AUC
Kindly report the value followed by its unit.

Task item: # lookup: AUC of CNCc1cc(-c2ccccc2F)n(S(=O)(=O)c2cccnc2)c1.O=C(O)/C=C/C(=O)O [vonoprazan]
Reply: 206 ng·h/mL

---

assay: Phase 1 randomized open-label crossover food-effect pharmacokinetic study, plasma vonoprazan by LC-MS/MS; format: in vivo, healthy Caucasian male and female subjects (human); conditions: both sexes, human, plasma, po, 20 mg, single 20-mg oral dose, fasted, n = 24; read-out: tmax, median (min, max)
QUANTITY_MEASURED: tmax (h)
Answers are plain numbers, in h.

Task item: # lookup: tmax of CNCc1cc(-c2ccccc2F)n(S(=O)(=O)c2cccnc2)c1.O=C(O)/C=C/C(=O)O [vonoprazan]
Reply: 2

---

assay: Phase 1 randomized open-label crossover food-effect pharmacokinetic study, plasma vonoprazan by LC-MS/MS; assay type: in vivo, healthy Caucasian male and female subjects (human); conditions: both sexes, human, plasma, po, 20 mg, single 20-mg oral dose, fasted, n = 24, plasma; read-out: AUC0‐∞, mean (SD)
QUANTITY_MEASURED: AUC (ng·h/mL)
Numbers only, in ng·h/mL.

Task item: # lookup: AUC of CNCc1cc(-c2ccccc2F)n(S(=O)(=O)c2cccnc2)c1.O=C(O)/C=C/C(=O)O [vonoprazan]
Reply: 179

---

assay: Phase 1 randomized open-label crossover food-effect pharmacokinetic study, plasma vonoprazan by LC-MS/MS; type: in vivo, healthy Caucasian male and female subjects (human); details: both sexes, human, plasma, po, 20 mg, single 20-mg oral dose, fasted, N = 24; read-out: AUC0‐∞, least-squares mean
QUANTITY_MEASURED: AUC (ng·h/mL)
Give bare numbers, in ng·h/mL.

Task item: # lookup: AUC of `CNCc1cc(-c2ccccc2F)n(S(=O)(=O)c2cccnc2)c1.O=C(O)/C=C/C(=O)O`
Reply: 171

---

assay: Phase 1 randomized open-label crossover food-effect pharmacokinetic study, plasma vonoprazan by LC-MS/MS; type: in vivo, healthy Caucasian male and female subjects (human); settings: both sexes, human, plasma, po, 20 mg, single 20-mg oral dose, fed, n = 24, plasma; read-out: AUC0‐24, mean (SD)
QUANTITY_MEASURED: AUC (ng·h/mL)
Give bare numbers, in ng·h/mL.

Task item: # lookup: AUC of CNCc1cc(-c2ccccc2F)n(S(=O)(=O)c2cccnc2)c1.O=C(O)/C=C/C(=O)O [vonoprazan]
Reply: 182
